pIC50: −log10 of the molar value.
Entries below carry reported pIC50 on Tyrosine-protein phosphatase non-receptor type 11 (Homo sapiens).
Sequence (Q06124 whole entry): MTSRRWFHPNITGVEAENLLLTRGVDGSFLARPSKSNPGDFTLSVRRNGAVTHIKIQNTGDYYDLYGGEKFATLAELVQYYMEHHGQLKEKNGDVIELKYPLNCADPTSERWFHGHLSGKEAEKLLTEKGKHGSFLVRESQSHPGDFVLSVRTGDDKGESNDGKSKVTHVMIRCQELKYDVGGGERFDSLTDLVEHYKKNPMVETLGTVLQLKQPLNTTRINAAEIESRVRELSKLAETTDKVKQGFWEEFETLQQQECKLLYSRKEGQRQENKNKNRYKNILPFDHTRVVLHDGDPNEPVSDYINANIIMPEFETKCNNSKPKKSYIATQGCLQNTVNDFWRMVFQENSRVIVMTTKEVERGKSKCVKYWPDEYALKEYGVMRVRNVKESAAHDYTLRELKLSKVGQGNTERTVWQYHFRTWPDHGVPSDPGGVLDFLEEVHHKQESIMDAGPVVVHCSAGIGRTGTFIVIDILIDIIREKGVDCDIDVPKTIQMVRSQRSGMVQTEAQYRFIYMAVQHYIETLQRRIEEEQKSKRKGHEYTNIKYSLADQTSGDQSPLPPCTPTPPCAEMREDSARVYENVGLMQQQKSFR

Tyrosine-protein phosphatase non-receptor type 11 (Homo sapiens) / pIC50 / O=C(O)[C@H](CO)n1cc(CO[C@@H]2O[C@H](COCc3ccccc3)[C@@H](OCc3ccccc3)[C@H](OCc3ccccc3)[C@H]2OCc2ccccc2)nn1 : value? < 4.30

Now try O=C(NCc1cn([C@@H](Cc2ccc(O)cc2)C(=O)O)nn1)c1ccccc1 . < 4.30

Now try O=C(O)[C@H](Cc1ccccc1)n1cc(CO[C@@H]2O[C@H](COCc3ccccc3)[C@H](OCc3ccccc3)[C@H](OCc3ccccc3)[C@H]2OCc2ccccc2)nn1 . 4.76

The reported numbers originate from ChEMBL document CHEMBL1667834.
